study.target: UniProtKB P09874
Below, each of the molecules is paired with its reported pIC50 value.
Just so you know, pIC50 here is -log10 of the concentration in molar units; reply with that number alone.

[
  {
    "smiles.str": "Nc1ncc(-c2nc3c(c(N4CCOCC4)n2)CCN(C(=O)c2cc(Cc4n[nH]c(=O)c5ccccc45)ccc2F)C3)cn1",
    "pIC50": 8.43
  }
]

Turning now to a further molecule:
GET pIC50 where system = UniProtKB P09874 and item = `Nc1ccc(-c2nc3c(c(N4CCOCC4)n2)CCN(C(=O)c2cc(Cc4n[nH]c(=O)c5ccccc45)ccc2F)C3)cn1`
9.40

---

study.target: PARP-1 (Homo sapiens, UniProt P09874)
Sequence (P09874 whole entry): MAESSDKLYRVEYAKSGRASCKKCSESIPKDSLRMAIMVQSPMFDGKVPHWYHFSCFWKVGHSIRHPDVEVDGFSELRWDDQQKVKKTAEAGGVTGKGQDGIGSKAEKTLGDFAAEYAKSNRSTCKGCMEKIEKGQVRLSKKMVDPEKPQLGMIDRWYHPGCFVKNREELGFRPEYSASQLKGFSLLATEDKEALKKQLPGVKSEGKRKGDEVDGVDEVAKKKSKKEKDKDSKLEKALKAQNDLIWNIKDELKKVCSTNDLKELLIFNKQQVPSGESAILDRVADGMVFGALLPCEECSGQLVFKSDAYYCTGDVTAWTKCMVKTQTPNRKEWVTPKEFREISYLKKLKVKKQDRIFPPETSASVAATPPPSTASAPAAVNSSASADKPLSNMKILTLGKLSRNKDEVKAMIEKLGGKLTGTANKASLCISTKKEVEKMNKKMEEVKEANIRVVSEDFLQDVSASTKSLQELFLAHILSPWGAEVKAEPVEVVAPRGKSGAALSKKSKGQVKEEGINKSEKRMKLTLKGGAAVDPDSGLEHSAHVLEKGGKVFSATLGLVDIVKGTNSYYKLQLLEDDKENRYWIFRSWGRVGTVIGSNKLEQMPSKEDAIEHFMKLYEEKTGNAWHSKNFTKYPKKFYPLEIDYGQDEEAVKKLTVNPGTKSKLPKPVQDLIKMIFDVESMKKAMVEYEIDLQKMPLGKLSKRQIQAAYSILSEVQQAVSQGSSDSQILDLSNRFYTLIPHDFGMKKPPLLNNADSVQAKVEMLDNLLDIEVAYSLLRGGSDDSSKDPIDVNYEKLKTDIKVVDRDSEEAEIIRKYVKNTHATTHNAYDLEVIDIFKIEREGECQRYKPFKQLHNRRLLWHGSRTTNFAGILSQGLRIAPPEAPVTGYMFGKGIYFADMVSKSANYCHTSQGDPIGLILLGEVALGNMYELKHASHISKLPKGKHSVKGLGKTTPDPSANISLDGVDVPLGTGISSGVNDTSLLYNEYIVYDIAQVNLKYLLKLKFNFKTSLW
test: PARP-1 inhibitory activity at the enzyme level (histone-coated plate, chemiluminescence)
Format: biochemical
conditions: 10 nM compound; read-out: Inhibition rate on PARP-1 (10 nM)
# Lookup of reported inhibition at 0.01 µM keyed by entry
Value expressed in %; do not type the unit.

Known results for compounds:
[
  {
    "compound": "Nc1ncc(-c2nc3c(c(N4CCOCC4)n2)CCN(C(=O)c2cc(Cc4n[nH]c(=O)c5ccccc45)ccc2F)C3)cn1 [I-1]",
    "reported.result": 81
  },
  {
    "compound": "O=C(c1cc(Cc2n[nH]c(=O)c3ccccc23)ccc1F)N1CCc2c(nc(-c3cccc4[nH]ccc34)nc2N2CCOCC2)C1 [I-10]",
    "reported.result": 88
  },
  {
    "compound": "Nc1ccc(-c2nc3c(c(N4CCOCC4)n2)CCN(C(=O)c2cc(Cc4n[nH]c(=O)c5ccccc45)ccc2F)C3)cn1 [I-2]",
    "reported.result": 93
  },
  {
    "compound": "O=C(c1cc(Cc2n[nH]c(=O)c3ccccc23)ccc1F)N1CCc2c(nc(-c3ccc4[nH]ccc4c3)nc2N2CCOCC2)C1 [I-9]",
    "reported.result": 85
  },
  {
    "compound": "O=C(CN1CCOCC1)Nc1cc(C(F)(F)F)c(-c2nc3c(c(N4CCOCC4)n2)CCN(C(=O)c2cc(Cc4n[nH]c(=O)c5ccccc45)ccc2F)C3)cn1 [I-4]",
    "reported.result": 67
  },
  {
    "compound": "C[C@@H]1CN(c2nc(-c3cnc(N)nc3)nc3c2CCN(C(=O)c2cc(Cc4n[nH]c(=O)c5ccccc45)ccc2F)C3)C[C@H](C)O1 [I-12]",
    "reported.result": 76
  }
]

Could you now look at the following compound, please?
Identify measured inhibition at 0.01 µM obtained with PARP-1 (Homo sapiens, UniProt P09874) for O=C(c1cc(Cc2n[nH]c(=O)c3ccccc23)ccc1F)N1CCc2c(nc(-c3cccc4[nH]ncc34)nc2N2CCOCC2)C1 [I-8] .
91

---

study.target: UniProtKB P09874
test: PARP-1 inhibitory activity at the enzyme level (histone-coated plate, chemiluminescence)
Format: biochemical
conditions: 10 nM compound; read-out: Inhibition rate on PARP-1 (10 nM)
Label fulfilled for high-side inhibition at 0.01 µM (at or above 80%) and not fulfilled for low-side inhibition at 0.01 µM (below it).

[
  {
    "smiles.str": "Nc1ccc(-c2nc3c(c(N4CCOCC4)n2)CCN(C(=O)c2cc(Cc4n[nH]c(=O)c5ccccc45)ccc2F)C3)c(F)c1",
    "assigned.class": "fulfilled"
  }
]

Does inhibition at 0.01 µM meet or surpass 80% for `Nc1cc(C(F)(F)F)c(-c2nc3c(c(N4CCOCC4)n2)CCN(C(=O)c2cc(Cc4n[nH]c(=O)c5ccccc45)ccc2F)C3)cn1` ?
not fulfilled

Exam item: decide whether the reported inhibition at 0.01 µM for `C[C@H]1COCCN1c1nc(-c2cnc(N)nc2)nc2c1CCN(C(=O)c1cc(Cc3n[nH]c(=O)c4ccccc34)ccc1F)C2` is at least 80%.
fulfilled

hey, is inhibition at 0.01 µM for this one >= 80%? `Nc1cc(-c2nc3c(c(N4CCOCC4)n2)CCN(C(=O)c2cc(Cc4n[nH]c(=O)c5ccccc45)ccc2F)C3)ccc1F`
fulfilled

---

study.target: PI3Kα (Homo sapiens)
test: PI3Kα inhibitory activity at the enzyme level (ADP detection by luciferase method)
Format: biochemical
conditions: 100 nM compound; read-out: Inhibition rate on PI3Kα (100 nM)
readout.label: inhibition at 0.1 µM (%)
Write the value in % as a bare number.

# annotated cases, reported inhibition at 0.1 µM shown
[
  {
    "smiles.str": "Nc1ncc(-c2nc3c(c(N4CCOCC4)n2)CCN(C(=O)c2cc(Cc4n[nH]c(=O)c5ccccc45)ccc2F)C3)cc1C(F)(F)F",
    "reported.result": 17
  },
  {
    "smiles.str": "C[C@@H]1CN(c2nc(-c3cnc(N)nc3)nc3c2CCN(C(=O)c2cc(Cc4n[nH]c(=O)c5ccccc45)ccc2F)C3)C[C@H](C)O1",
    "reported.result": 40
  },
  {
    "smiles.str": "C[C@H]1COCCN1c1nc(-c2cnc(N)nc2)nc2c1CCN(C(=O)c1cc(Cc3n[nH]c(=O)c4ccccc34)ccc1F)C2",
    "reported.result": 67
  }
]

Give inhibition at 0.1 µM for `Nc1ccc(-c2nc3c(c(N4CCOCC4)n2)CCN(C(=O)c2cc(Cc4n[nH]c(=O)c5ccccc45)ccc2F)C3)cn1`
66

Identify measured inhibition at 0.1 µM corresponding to `Nc1ncc(-c2nc3c(c(N4CCOCC4)n2)CCN(C(=O)c2cc(Cc4n[nH]c(=O)c5ccccc45)ccc2F)C3)cn1`
66

Consider the compound `O=C(c1cc(Cc2n[nH]c(=O)c3ccccc23)ccc1F)N1CCc2c(nc(-c3ccc4[nH]ccc4c3)nc2N2CCOCC2)C1` . State its measured inhibition at 0.1 µM.
30

Retrieve inhibition at 0.1 µM measured for `O=C(CN1CCOCC1)Nc1cc(C(F)(F)F)c(-c2nc3c(c(N4CCOCC4)n2)CCN(C(=O)c2cc(Cc4n[nH]c(=O)c5ccccc45)ccc2F)C3)cn1` and print it.
53

---

Measured melting point of individual entries

These recorded examples may help you get a feel for the data.
[
  {
    "smiles.str": "Nc1ncc(-c2nc3c(c(N4CCOCC4)n2)CCN(C(=O)c2cc(Cc4n[nH]c(=O)c5ccccc45)ccc2F)C3)cc1C(F)(F)F",
    "melting point": "256 to 258 °C"
  },
  {
    "smiles.str": "C[C@@H]1CN(c2nc(-c3cnc(N)nc3)nc3c2CCN(C(=O)c2cc(Cc4n[nH]c(=O)c5ccccc45)ccc2F)C3)C[C@H](C)O1",
    "melting point": "204 to 206 °C"
  },
  {
    "smiles.str": "O=C(c1cc(Cc2n[nH]c(=O)c3ccccc23)ccc1F)N1CCc2c(nc(-c3ccc4[nH]ccc4c3)nc2N2CCOCC2)C1",
    "melting point": "238 to 240 °C"
  },
  {
    "smiles.str": "Nc1ccc(-c2nc3c(c(N4CCOCC4)n2)CCN(C(=O)c2cc(Cc4n[nH]c(=O)c5ccccc45)ccc2F)C3)c(F)c1",
    "melting point": "204 to 206 °C"
  },
  {
    "smiles.str": "Nc1cc(-c2nc3c(c(N4CCOCC4)n2)CCN(C(=O)c2cc(Cc4n[nH]c(=O)c5ccccc45)ccc2F)C3)ccc1F",
    "melting point": "236 to 239 °C"
  }
]

Consider now this further compound.
Output measured melting point for this item: `C[C@H]1COCCN1c1nc(-c2cnc(N)nc2)nc2c1CCN(C(=O)c1cc(Cc3n[nH]c(=O)c4ccccc34)ccc1F)C2`
214 to 216 °C

---

study.target: PI3Kα (Homo sapiens, UniProt P42336)
Sequence (P42336 whole entry): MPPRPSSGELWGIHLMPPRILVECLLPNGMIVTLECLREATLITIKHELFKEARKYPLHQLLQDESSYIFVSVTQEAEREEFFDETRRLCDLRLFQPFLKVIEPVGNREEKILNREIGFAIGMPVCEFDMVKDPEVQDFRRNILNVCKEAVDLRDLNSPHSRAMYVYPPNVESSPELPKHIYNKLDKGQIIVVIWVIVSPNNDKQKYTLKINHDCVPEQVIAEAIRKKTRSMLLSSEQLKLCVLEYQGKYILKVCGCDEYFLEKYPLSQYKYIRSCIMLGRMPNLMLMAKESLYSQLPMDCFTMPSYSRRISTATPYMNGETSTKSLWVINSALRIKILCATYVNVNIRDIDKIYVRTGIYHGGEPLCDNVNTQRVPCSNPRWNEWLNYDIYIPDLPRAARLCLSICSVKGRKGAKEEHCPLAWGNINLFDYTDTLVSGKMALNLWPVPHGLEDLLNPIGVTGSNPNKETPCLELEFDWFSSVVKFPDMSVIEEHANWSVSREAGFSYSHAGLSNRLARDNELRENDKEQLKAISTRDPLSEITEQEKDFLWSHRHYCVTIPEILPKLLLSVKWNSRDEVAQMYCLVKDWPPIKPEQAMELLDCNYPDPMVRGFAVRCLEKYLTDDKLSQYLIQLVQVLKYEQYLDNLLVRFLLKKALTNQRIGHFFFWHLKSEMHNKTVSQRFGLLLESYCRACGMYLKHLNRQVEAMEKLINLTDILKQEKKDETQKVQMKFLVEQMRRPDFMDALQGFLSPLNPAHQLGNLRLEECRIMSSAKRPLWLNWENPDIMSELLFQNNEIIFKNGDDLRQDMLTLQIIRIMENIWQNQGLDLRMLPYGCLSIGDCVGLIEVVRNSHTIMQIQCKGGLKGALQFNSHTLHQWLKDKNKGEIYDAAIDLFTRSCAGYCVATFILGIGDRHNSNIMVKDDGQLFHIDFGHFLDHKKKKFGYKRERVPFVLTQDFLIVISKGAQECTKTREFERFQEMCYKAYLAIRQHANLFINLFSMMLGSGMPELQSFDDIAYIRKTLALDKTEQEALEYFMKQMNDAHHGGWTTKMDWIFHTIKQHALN
Sequence (P27986 whole entry partner): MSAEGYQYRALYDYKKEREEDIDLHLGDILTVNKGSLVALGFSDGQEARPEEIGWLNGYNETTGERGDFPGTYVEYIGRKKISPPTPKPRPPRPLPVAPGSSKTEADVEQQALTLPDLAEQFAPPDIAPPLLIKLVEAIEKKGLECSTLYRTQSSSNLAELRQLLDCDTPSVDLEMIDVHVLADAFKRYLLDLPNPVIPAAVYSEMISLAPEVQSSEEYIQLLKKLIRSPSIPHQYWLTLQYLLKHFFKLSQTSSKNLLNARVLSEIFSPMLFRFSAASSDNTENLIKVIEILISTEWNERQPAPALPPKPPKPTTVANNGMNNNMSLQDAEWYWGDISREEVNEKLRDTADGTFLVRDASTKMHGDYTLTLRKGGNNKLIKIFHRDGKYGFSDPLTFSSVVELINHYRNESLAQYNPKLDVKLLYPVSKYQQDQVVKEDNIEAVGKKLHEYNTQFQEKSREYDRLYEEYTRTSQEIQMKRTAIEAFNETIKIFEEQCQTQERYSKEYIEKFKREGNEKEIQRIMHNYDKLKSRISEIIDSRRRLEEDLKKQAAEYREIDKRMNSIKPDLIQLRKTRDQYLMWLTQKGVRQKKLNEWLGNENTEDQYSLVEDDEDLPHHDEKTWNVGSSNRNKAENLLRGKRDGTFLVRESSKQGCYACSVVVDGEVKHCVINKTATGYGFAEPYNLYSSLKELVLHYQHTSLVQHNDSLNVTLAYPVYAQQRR
test: PI3Kα inhibitory activity at the enzyme level (ADP detection by luciferase method)
Assay type: biochemical
readout.label: IC50 (µM)
Field: numeric (µM). Do not append units.

[
  {
    "compound": "Nc1ncc(-c2nc3c(c(N4CCOCC4)n2)CCN(C(=O)c2cc(Cc4n[nH]c(=O)c5ccccc45)ccc2F)C3)cn1 [I-1]",
    "result.unit": "µM",
    "IC50": 0.069
  },
  {
    "compound": "C[C@@H]1CN(c2nc(-c3cnc(N)nc3)nc3c2CCN(C(=O)c2cc(Cc4n[nH]c(=O)c5ccccc45)ccc2F)C3)C[C@H](C)O1 [I-12]",
    "result.unit": "µM",
    "IC50": 0.0926
  },
  {
    "compound": "Nc1cc(C(F)(F)F)c(-c2nc3c(c(N4CCOCC4)n2)CCN(C(=O)c2cc(Cc4n[nH]c(=O)c5ccccc45)ccc2F)C3)cn1 [I-3]",
    "result.unit": "µM",
    "IC50": 0.194
  }
]

Now for the compound whose IC50 we want.
Provide only the value of recorded IC50 for Nc1ccc(-c2nc3c(c(N4CCOCC4)n2)CCN(C(=O)c2cc(Cc4n[nH]c(=O)c5ccccc45)ccc2F)C3)cn1 [I-2]
0.13
